target: Serine/threonine-protein kinase 36 (Homo sapiens, UniProt Q9NRP7); assay: Binding affinity to wild-type human partial length STK36 (M1 to T271 residues) expressed in bacterial expression system by active-site directed competition binding assay based Kinomescan method
Sequence (Q9NRP7 whole entry, the tested form may be a part): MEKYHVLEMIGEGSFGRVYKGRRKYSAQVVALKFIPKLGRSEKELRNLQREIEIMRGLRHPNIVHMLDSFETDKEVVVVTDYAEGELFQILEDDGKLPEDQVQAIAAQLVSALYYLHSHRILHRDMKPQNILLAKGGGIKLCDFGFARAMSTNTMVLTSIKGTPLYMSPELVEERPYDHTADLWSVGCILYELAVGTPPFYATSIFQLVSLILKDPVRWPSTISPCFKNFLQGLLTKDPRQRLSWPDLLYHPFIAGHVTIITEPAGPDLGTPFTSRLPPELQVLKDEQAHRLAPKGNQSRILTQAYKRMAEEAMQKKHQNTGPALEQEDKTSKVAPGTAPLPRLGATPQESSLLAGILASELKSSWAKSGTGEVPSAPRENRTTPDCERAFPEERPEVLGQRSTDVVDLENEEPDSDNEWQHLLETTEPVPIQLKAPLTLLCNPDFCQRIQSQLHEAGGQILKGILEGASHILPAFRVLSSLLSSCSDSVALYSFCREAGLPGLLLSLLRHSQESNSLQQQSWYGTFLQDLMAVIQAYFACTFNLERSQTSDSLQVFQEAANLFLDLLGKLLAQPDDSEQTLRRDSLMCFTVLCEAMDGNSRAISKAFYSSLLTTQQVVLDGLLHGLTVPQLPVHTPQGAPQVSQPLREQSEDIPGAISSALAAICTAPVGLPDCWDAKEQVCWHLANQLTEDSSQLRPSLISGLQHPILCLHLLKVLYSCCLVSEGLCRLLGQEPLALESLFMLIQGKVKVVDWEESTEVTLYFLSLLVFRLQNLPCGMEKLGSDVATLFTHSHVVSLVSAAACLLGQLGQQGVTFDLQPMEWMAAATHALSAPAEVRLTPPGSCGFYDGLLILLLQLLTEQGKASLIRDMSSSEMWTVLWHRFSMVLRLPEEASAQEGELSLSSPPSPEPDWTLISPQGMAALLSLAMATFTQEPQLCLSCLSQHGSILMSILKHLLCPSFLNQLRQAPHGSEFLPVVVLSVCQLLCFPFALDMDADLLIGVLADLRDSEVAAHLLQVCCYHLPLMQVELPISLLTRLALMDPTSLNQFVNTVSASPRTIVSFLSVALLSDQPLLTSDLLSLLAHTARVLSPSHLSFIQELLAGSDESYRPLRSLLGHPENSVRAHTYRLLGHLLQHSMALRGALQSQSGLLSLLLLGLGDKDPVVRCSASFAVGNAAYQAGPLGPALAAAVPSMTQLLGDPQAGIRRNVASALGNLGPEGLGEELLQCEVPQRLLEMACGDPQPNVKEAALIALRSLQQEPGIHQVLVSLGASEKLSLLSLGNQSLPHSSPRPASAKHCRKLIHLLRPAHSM
OBSERVATION TYPE: Kd (µM)
The figure you give is taken to be in µM; do not add the unit.

q: Report measured Kd; entry is COc1cc2c(-c3cnc(-c4ccc[nH]4)o3)c[nH]c2cc1Br
a: 2.7

====

assay: Toxicity in zebrafish embryos assessed as survival at 14 uM after 72 hrs (reference value: 95%); set-up: species or system Danio rerio; details: in vivo
OBSERVATION TYPE: survival at 72 h, 14 µM (%)
The figure you give is taken to be in %; do not add the unit.

q: Report measured survival at 72 h, 14 µM; entry is COc1cc2c(-c3cnc(-c4ccc[nH]4)o3)c[nH]c2cc1Br
a: 5
